ASSAY INFO: chemical genetic growth profiling, strain panel (AID 1159580);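 also: tested at 20 µM; growth read once vehicle control cultures reached saturation at 30 °C; 1 = growth at the plate median or of vehicle wells; lower values mean less growth of the strain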
CONDITION DESCRIPTION: S. cerevisiae deletion strains, growth OD, locus YNL233W, strain BNI4, stronger effect = lower value
The campaign covered roughly 5,500 compounds. About 2,000 (36%) were called active. Not shown: some 18% with an inconclusive outcome. This is one part of the list.
Below, each entry is listed alongside its reported normalized growth.

Look over these answered cases.
>>> df
                                   molecule   reported_value
0  NC(Cn1ccc(=O)c(O)c1)C(=O)O (stereo unspecified)  1.02 (inactive)
1  C=C(C)C1(O)OC(=O)C=C1OC (stereo unspecified)  1.04 (inactive)
2  OC[C@H]1O[C@@H](O[C@H]2[C@H](O)[C@@H](O)[C@@H](O)O[C@@H]2CO)[C@H](O)[C@@H](O)[C@@H]1O  1.01 (inactive)
3  NCC(N)C(=O)c1ccccc1 (stereo unspecified)  1.02 (inactive)
4  CC(C)c1ccc2c(c1)CCC1[C@](C)(CN)CCC[C@]21C (stereo partly specified)   0.414 (active)

Switching to the query record.
Find the recorded normalized growth belonging to CC(C)CC(NC(=O)OCC1c2ccccc2-c2ccccc21)C(=O)O (stereo unspecified) and report it. 1.01 (inactive)

---

ASSAY INFO: chemical genetic growth profiling, strain panel (AID 1159580)
CONDITION DESCRIPTION: S. cerevisiae deletion strains, growth OD, locus YLL041C, strain sdh2, stronger effect = lower value
In all, about 5,500 compounds went through this assay and about 2,000 (36%) were called active. Another 18% or so got no clear call; they are omitted. The list shows a part of the results.
Below, each entry is listed alongside its reported normalized growth.
Respond with the number and no other words.

Look over these answered cases.
>>> print(df.to_string())
                                   compound          parameter  reported_value
0  CC1(C)CC2C1CC[C@]1(CBr)CCC3C(CC(=O)O)C(=O)O[C@@]32C1 (stereo partly specified)  normalized growth            1.01
1  CC(=O)O[C@@H]1CC2C(C)(C)[C@H](O)C=C[C@]2(C)C2CC[C@]3(C)C(=CC(=O)O[C@H]3c3ccoc3)[C@@]21C (stereo partly specified)  normalized growth           0.985
2                          NC1=NCCN1CC(=O)O  normalized growth            1.01

Find the recorded normalized growth belonging to COc1ccc(C2Sc3ccccc3N(CCN(C)C)C(=O)C2OC(C)=O)cc1 (stereo unspecified) and report it. 0.956

Find the recorded normalized growth belonging to CC(=O)O[C@@H]1CC2C(C)(C)C(=O)C=C[C@]2(C)C2CC[C@]3(C)C(=CC(=O)O[C@H]3c3ccoc3)[C@@]21C (stereo partly specified) and report it. 1.02

---

Below, each entry is listed alongside its reported normalized growth.
ASSAY INFO: chemical genetic growth profiling, strain panel (AID 1159580)
CONDITION DESCRIPTION: S. cerevisiae deletion strains, growth OD, locus YER133W, strain GLC7, stronger effect = lower value
The whole screen tested about 5,500 compounds, of which about 2,000 (36%) were called active. Roughly 18% stayed inconclusive and do not appear here. The list shows a part of the results.
Respond with the number and no other words.

Look over these answered cases.
In [3]: df
Out[3]:
                                   compound          parameter  reported_value
0  N/C(Cc1cccc2ccccc12)=N/OC(=O)c1ccc(Cl)cc1  normalized growth           0.889
1  O=C(CSC1=NNC(c2ccccn2)S1)Nc1ccccc1 (stereo unspecified)  normalized growth           0.962
2  Cc1c(C)c(C)c(C(=O)c2ccc(N=Cc3cc(Cl)cc(Cl)c3O)cc2)c(C)c1C  normalized growth           0.527

Find the recorded normalized growth belonging to COc1c(Br)csc1C(=O)O/N=C(/N)c1cc(C(F)(F)F)cc(C(F)(F)F)c1 and report it. 1.03

Find the recorded normalized growth belonging to CCOC(=O)c1ccc(Cl)c(N=Cc2cc(Cl)cc(Cl)c2O)c1 and report it. 0.567

---

ASSAY INFO: chemical genetic growth profiling, strain panel (AID 1159580);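 also: tested at 20 µM; growth read once vehicle control cultures reached saturation at 30 °C; 1 = growth at the plate median or of vehicle wells; lower values mean less growth of the strain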
CONDITION DESCRIPTION: S. cerevisiae deletion strains, growth OD, locus YEL003W, strain gim4, stronger effect = lower value
Screen size: about 5,500 compounds; about 2,000 (36%) were called active. Not shown: some 18% with an inconclusive outcome. The list shows a part of the results.
Below, each entry is listed alongside its reported normalized growth.

Find the recorded normalized growth belonging to CC(=O)OCC(=O)[C@@]1(O)[C@H](C)CC2C3CCC4=CC(=O)C=C[C@]4(C)[C@@]3(F)[C@@H](O)C[C@@]21C (some centres undefined) and report it. 0.981 (inactive)

Find the recorded normalized growth belonging to CCCSc1ccc2nc(NC(=O)OC)[nH]c2c1 and report it. 0.446 (active)

Find the recorded normalized growth belonging to CC(C)c1ccc2c(c1)CCC1[C@](C)(CN)CCC[C@]21C (some centres undefined) and report it. 0.927 (inactive)

Find the recorded normalized growth belonging to CC(=O)O[C@H]1CC[C@@]2(C)C(C[C@@H](OC(C)=O)[C@@]3(C)C4=CC(=O)O[C@@H](c5ccoc5)[C@]4(C)CCC23)C1(C)C (some centres undefined) and report it. 1 (inactive)

Find the recorded normalized growth belonging to CCN(CC)CCOCCOC(=O)C1(c2ccccc2)CCCC1 and report it. 0.999 (inactive)

Find the recorded normalized growth belonging to CC(N=C(NC#N)Nc1ccncc1)C(C)(C)C (centres undefined) and report it. 0.967 (inactive)

Find the recorded normalized growth belonging to CC(C)c1ccc2c(c1)CCC1C(C)(C(N)=O)CCCC21C (centres undefined) and report it. 0.971 (inactive)

Find the recorded normalized growth belonging to CCN(CC)CCOC(=O)C1(C2CCCCC2)CCCCC1 and report it. 0.987 (inactive)

Find the recorded normalized growth belonging to CC(=O)O[C@@H]1CC2C(C)(C)[C@H](O)C=C[C@]2(C)C2CC[C@]3(C)C(=CC(=O)O[C@H]3c3ccoc3)[C@@]21C (some centres undefined) and report it. 0.985 (inactive)

---

ASSAY INFO: chemical genetic growth profiling, strain panel (AID 1159580);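 also: tested at 20 µM; growth read once vehicle control cultures reached saturation at 30 °C; 1 = growth at the plate median or of vehicle wells; lower values mean less growth of the strain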
CONDITION DESCRIPTION: S. cerevisiae deletion strains, growth OD, locus YHR030C, strain SLT2
The campaign covered roughly 5,500 compounds. About 2,000 (36%) were called active. Inconclusive results (about 18%) are left out. Cut-off read from the data, not from the text of the source: active = normalized growth mostly below about 0.91 (no sharp cut-off); inconclusive = no clear call, values can overlap the other calls; inactive = mostly above about 0.92. The list shows a part of the results.
Write down one outcome, taken from T (active), F (inactive)

Completed entries (count: 5):
                                   molecule  label_value
0           Cc1nc(N)cc(C[n+]2csc(CCO)c2C)n1            F
1  Cc1nn(-c2cccc(Cl)c2)c2oc(=O)cc(C(F)(F)F)c12            T
2  Cc1cc(C)c(Cn2nc(C(C)(C)C)cc2C(=O)Nc2cccc(C(F)(F)F)c2)c(C)c1            F
3  CC(C)(C)c1cc(C(=O)NNC(=O)c2cc(C(F)(F)F)cc(C(F)(F)F)c2)n(Cc2ccc(F)cc2)n1            F
4              COC(=O)C/C(N)=C(\C#N)C(=O)OC            F

Lab log entry: CC(=O)c1ccc(Cl)c(N=Cc2cc(Cl)cc(Cl)c2O)c1 — outcome as called in the assay? T

Lab log entry: CC(=O)c1ccc(Cl)c(N=Cc2cc(Br)cc(Br)c2O)c1 — outcome as called in the assay? T

Lab log entry: CC(=O)Oc1ccc(O)cc1 — outcome as called in the assay? F

Lab log entry: CC(N=C(NC#N)Nc1ccncc1)C(C)(C)C (stereo unspecified) — outcome as called in the assay? F

Lab log entry: CC(C)(C)c1cc(C(=O)Nc2ccc3c(c2)OCO3)n(Cc2ccc(F)cc2)n1 — outcome as called in the assay? F

Lab log entry: NNCc1cccc(O)c1 — outcome as called in the assay? F

---

Below, each entry is listed alongside its reported normalized growth.
ASSAY INFO: chemical genetic growth profiling, strain panel (AID 1159580);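 also: tested at 20 µM; growth read once vehicle control cultures reached saturation at 30 °C; 1 = growth at the plate median or of vehicle wells; lower values mean less growth of the strain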
CONDITION DESCRIPTION: S. cerevisiae deletion strains, growth OD, locus YEL003W, strain gim4, stronger effect = lower value
Among all 5,500 compounds or so, about 2,000 (36%) were called active. Not shown: some 18% with an inconclusive outcome. The list shows a part of the results.
Respond with the number and no other words.

Find the recorded normalized growth belonging to CCN1CCN(C(=O)NC(C(=O)N[C@@H]2C(=O)N3[C@@H]2SC(C)(C)[C@@H]3C(=O)O)c2ccccc2)C(=O)C1=O (stereo not given in full) and report it. 1.01

Find the recorded normalized growth belonging to COc1ccccc1OCC(O)CO (stereo not given) and report it. 1.01

Find the recorded normalized growth belonging to NC(=O)NC(=O)Cc1ccccc1 and report it. 0.998

Find the recorded normalized growth belonging to CC(=O)O[C@H]1CC[C@@]2(C)C(=CC(=O)C3C4CCC(C(C)CCCC(C)C)[C@@]4(C)CCC32)C1 (stereo not given in full) and report it. 1.01

Find the recorded normalized growth belonging to CC(C)CCCC(C)[C@H]1CCC2C3C(=O)C=C4C[C@@H](O)CC[C@]4(C)C3CC[C@@]21C (stereo not given in full) and report it. 0.996
